B1: glmS ribozyme (parent)
chain: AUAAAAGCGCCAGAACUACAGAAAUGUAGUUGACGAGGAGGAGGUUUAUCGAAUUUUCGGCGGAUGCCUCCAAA

variants of: B1; assay: self-cleavage kobs at 640 uM GlcN6P; higher = faster cleavage; RNA array; settings: with glucosamine-6-phosphate
Variants at the floor of the assay were thinned out.
Readout kind: self-cleavage kobs at 640 uM GlcN6P

Record excerpt, results attached:
Mut | self-cleavage kobs at 640 uM GlcN6P
G38C G60C C71G | < 1e-05 s⁻¹
G29U U69C | 0.000356 s⁻¹
C11A C16U G44U A53G C71G | < 1e-05 s⁻¹
A33C G35A G51C | < 1e-05 s⁻¹
G38U C68A | 0.000459 s⁻¹
A33G G40C G63U | < 1e-05 s⁻¹

I have this variant here, A33G G44U , and I need its recorded self-cleavage kobs at 640 uM GlcN6P. < 1e-05 s⁻¹

I have this variant here, G9C G29U C50G C70G , and I need its recorded self-cleavage kobs at 640 uM GlcN6P. 0.000131 s⁻¹

I have this variant here, A6G G40U U54A , and I need its recorded self-cleavage kobs at 640 uM GlcN6P. < 1e-05 s⁻¹

I have this variant here, A15G A36U C50A G60A , and I need its recorded self-cleavage kobs at 640 uM GlcN6P. < 1e-05 s⁻¹
